molecular target: hemagglutinin (HA) of influenza virus H3N2 A/Wisconsin/67/05 (influenza A virus); experiment: cell-based or functional assay
readout kind: neutralization titer (nM)
Reply numerically in nM, unit not repeated.

In: Need neutralization titer of MD1213 (VHH) EVQLVESGGGLVQAGGSLKLSCAASGRTYAMGWFRQAPGKEREFVAHINALGTRTYYSDSVKGRFTISRDNAKNTEYLEMNNLKPEDTAVYYCTAQGQWRAAPVAVAAEYEFWGQGTQVTVSSAAAGGGGSGGGGSGGGGSEVQLVESGGGLVQAGGSLKLSCAASGRTYAMGWFRQAPGKEREFVAHINALGTRTYYSDSVKGRFTISRDNAKNTEYLEMNNLKPEDTAVYYCTAQGQWRAAPVAVAAEYEFWGQGTQVTVSS , thanks.
Out: 18.6

In: Request the reported neutralization titer associated with MD1214 (bispecific antibody) EVQLVESGGGLVQPGGSLRLSCAVSISIFDIYAMDWYRQAPGKQRDLVATSFRDGSTNYADSVKGRFTISRDNAKNTLYLQMNSLKPEDTAVYLCHVSLYRDPLGVAGGMGVYWGKGALVTVSSAAAGGGGSGGGGSGGGGSEVQLVESGGGLVQAGGSLKLSCAASGRTYAMGWFRQAPGKEREFVAHINALGTRTYYSDSVKGRFTISRDNAKNTEYLEMNNLKPEDTAVYYCTAQGQWRAAPVAVAAEYEFWGQGTQVTVSS
Out: 12.5

In: Find the recorded neutralization titer belonging to MD1216 (bispecific antibody) EVQLVESGGGLVQPGGSLRLSCAVSISIFDIYAMDWYRQAPGKQRDLVATSFRDGSTNYADSVKGRFTISRDNAKNTLYLQMNSLKPEDTAVYLCHVSLYRDPLGVAGGMGVYWGKGALVTVSSAAAGGGGSGGGGSGGGGSGGGGSGGGGGGSGGGGSGGGGSGGGGSGGGGSGGGGSGGGGSEVQLVESGGGLVQAGGSLKLSCAASGRTYAMGWFRQAPGKEREFVAHINALGTRTYYSDSVKGRFTISRDNAKNTEYLEMNNLKPEDTAVYYCTAQGQWRAAPVAVAAEYEFWGQGTQVTVSS and report it.
Out: 12.1

In: Name the recorded neutralization titer for MD1215 (VHH) EVQLVESGGGLVQAGGSLKLSCAASGRTYAMGWFRQAPGKEREFVAHINALGTRTYYSDSVKGRFTISRDNAKNTEYLEMNNLKPEDTAVYYCTAQGQWRAAPVAVAAEYEFWGQGTQVTVSSAAAGGGGSGGGGSGGGGSGGGGSGGGGGGSGGGGSGGGGSGGGGSGGGGSGGGGSGGGGSEVQLVESGGGLVQAGGSLKLSCAASGRTYAMGWFRQAPGKEREFVAHINALGTRTYYSDSVKGRFTISRDNAKNTEYLEMNNLKPEDTAVYYCTAQGQWRAAPVAVAAEYEFWGQGTQVTVSS .
Out: 34.1
